- Assay Remarks: in vivo
- Study Conditions: ICR, mouse, ip, 30 mg/kg

>  <Compound Structure String>
O=C1NS(=O)(=O)c2ccccc21

>  <Tmax at 12 h / min>
15

$$$$

###

- Assay Remarks: Half life of the compound in DMSO
- Format: physicochemical
Collected half-life values appear next to each entry.

>  <Compound Structure String>
O=C(NCc1cccs1)N1C(=O)c2ccccc2S1(=O)=O

>  <half-life>
> 167 h

$$$$
>  <Compound Structure String>
O=C(Oc1ccccc1)N1C(=O)c2ccccc2S1(=O)=O

>  <half-life>
3.04 h

$$$$
>  <Compound Structure String>
O=C(NCc1ccccc1)N1C(=O)c2ccccc2S1(=O)=O

>  <half-life>
> 167 h

$$$$
>  <Compound Structure String>
O=C(NCCc1ccccc1)N1C(=O)c2ccccc2S1(=O)=O

>  <half-life>
> 167 h

$$$$
>  <Compound Structure String>
O=C(NCc1ccccc1Cl)N1C(=O)c2ccccc2S1(=O)=O

>  <half-life>
> 167 h

$$$$
>  <Compound Structure String>
O=C(NCc1cccc2ccccc12)N1C(=O)c2ccccc2S1(=O)=O

>  <half-life>
> 167 h

$$$$
>  <Compound Structure String>
O=C(NCc1ccccc1C(F)(F)F)N1C(=O)c2ccccc2S1(=O)=O

>  <half-life>
> 167 h

$$$$
>  <Compound Structure String>
O=C(c1ccccc1)N1Cc2ccccc2S1(=O)=O

>  <half-life>
> 167 h

$$$$
>  <Compound Structure String>
O=C(NCc1cccc(Br)c1)N1C(=O)c2ccccc2S1(=O)=O

>  <half-life>
> 167 h

$$$$
>  <Compound Structure String>
O=C(c1ccccc1)N1C(=O)c2ccccc2S1(=O)=O

>  <half-life>
> 0.875 h

$$$$
>  <Compound Structure String>
O=C(NCc1ccc(C(F)(F)F)cc1)N1C(=O)c2ccccc2S1(=O)=O

>  <half-life>
> 167 h

$$$$
>  <Compound Structure String>
O=C(Cc1ccccc1)N1C(=O)c2ccccc2S1(=O)=O

>  <half-life>
3.4 h

$$$$
>  <Compound Structure String>
Cc1ccccc1CNC(=O)N1C(=O)c2ccccc2S1(=O)=O

>  <half-life>
> 167 h

$$$$
>  <Compound Structure String>
COc1ccccc1CNC(=O)N1C(=O)c2ccccc2S1(=O)=O

>  <half-life>
> 167 h

$$$$
>  <Compound Structure String>
O=C(CCc1ccccc1)N1C(=O)c2ccccc2S1(=O)=O

>  <half-life>
5.78 h

$$$$
>  <Compound Structure String>
O=C(OCc1ccccc1)N1C(=O)c2ccccc2S1(=O)=O

>  <half-life>
> 167 h

$$$$
